The following compounds are listed with their measured IC50 values.
target: human norepinephrine transporter (hNET) (Homo sapiens); experiment: cell-based; details: Table 6; bound given in μM; read-out: Reuptake Inhibition [3H]NE IC50
Sequence (P23975 whole entry): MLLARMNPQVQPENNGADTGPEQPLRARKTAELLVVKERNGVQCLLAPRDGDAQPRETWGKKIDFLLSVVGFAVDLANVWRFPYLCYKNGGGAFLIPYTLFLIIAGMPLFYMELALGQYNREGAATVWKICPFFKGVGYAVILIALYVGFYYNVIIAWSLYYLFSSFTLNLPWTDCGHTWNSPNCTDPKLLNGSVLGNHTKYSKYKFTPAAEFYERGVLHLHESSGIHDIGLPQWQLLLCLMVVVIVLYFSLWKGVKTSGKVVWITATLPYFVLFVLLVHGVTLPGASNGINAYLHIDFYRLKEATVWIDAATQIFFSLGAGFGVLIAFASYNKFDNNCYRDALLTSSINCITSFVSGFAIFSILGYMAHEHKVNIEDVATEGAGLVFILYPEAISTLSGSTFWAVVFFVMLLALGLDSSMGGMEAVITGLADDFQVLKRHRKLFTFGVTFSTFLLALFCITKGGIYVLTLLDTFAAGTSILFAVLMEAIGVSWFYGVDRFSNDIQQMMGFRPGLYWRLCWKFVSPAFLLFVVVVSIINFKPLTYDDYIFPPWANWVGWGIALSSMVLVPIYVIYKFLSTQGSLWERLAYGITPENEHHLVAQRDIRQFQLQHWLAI

{"COMPOUND": "O=[N+]([O-])c1ccc(S(=O)(=O)N2CCN(CCCCOC(c3ccc(F)cc3)c3ccc(F)cc3)CC2)cc1 [Compound 42]", "IC50": "> 10 µM"}

stdin: # return recorded IC50 for entry O=C1CN(CCCCOC(c2ccc(F)cc2)c2ccc(F)cc2)CCN1 [Compound 27]
stdout: > 10 µM

###

The following compounds are listed with their measured pKi values.
molecular target: human norepinephrine transporter (hNET) (Homo sapiens); experiment: biochemical; settings: Table 2; [125I]RTI-55; read-out: NET binding affinity Ki
The quantity pKi is defined as the negative base-10 logarithm of the molar concentration.

{"COMPOUND": "O=C(NCC1CCCN(CCCCOC(c2ccc(F)cc2)c2ccc(F)cc2)C1)c1cccc(C(F)(F)F)c1 (stereo not shown)", "pKi": 7.31}
{"COMPOUND": "NCC1CCCN(CCCCOC(c2ccc(F)cc2)c2ccc(F)cc2)C1 (stereo not shown)", "pKi": 6.27}
{"COMPOUND": "O=C(NCc1ccc(F)cc1)NCC1CCCN(CCCCOC(c2ccc(F)cc2)c2ccc(F)cc2)C1 (stereo not shown)", "pKi": 7.22}

Next compound, please.
stdin: Look up human norepinephrine transporter (hNET) (Homo sapiens) data: pKi of O=C(NCC1CCCN(CCCCOC(c2ccc(F)cc2)c2ccc(F)cc2)C1)Nc1ccc(F)cc1 (stereo not shown) , then report it.
stdout: 7.00

###

target: human serotonin transporter (hSERT) (Homo sapiens, UniProt P31645); assay: cell-based; details: Reuptake Inhibition [3H]5-HT IC50, Table 2-1
Sequence (P31645 whole entry): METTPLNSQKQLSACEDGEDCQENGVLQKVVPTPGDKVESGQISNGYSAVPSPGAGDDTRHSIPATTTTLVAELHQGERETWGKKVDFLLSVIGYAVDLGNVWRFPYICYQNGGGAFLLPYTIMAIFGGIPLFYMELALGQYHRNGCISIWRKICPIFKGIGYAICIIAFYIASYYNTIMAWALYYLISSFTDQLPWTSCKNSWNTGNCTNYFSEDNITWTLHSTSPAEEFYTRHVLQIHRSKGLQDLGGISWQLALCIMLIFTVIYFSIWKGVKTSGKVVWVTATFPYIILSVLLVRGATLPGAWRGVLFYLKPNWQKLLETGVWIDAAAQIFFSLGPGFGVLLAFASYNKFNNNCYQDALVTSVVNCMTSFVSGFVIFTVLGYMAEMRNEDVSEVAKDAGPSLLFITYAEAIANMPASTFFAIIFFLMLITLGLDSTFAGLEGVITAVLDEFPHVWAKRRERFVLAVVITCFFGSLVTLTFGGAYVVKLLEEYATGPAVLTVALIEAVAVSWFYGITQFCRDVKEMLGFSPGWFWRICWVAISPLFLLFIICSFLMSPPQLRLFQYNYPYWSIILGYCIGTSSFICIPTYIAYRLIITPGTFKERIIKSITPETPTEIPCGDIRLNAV
MEASUREMENT_NAME: IC50
Include the unit after the number when you answer.

Worked cases, IC50 given:
{"COMPOUND": "O=C(NCc1ccc(F)cc1)NCC1CCCN(CCCCOC(c2ccc(F)cc2)c2ccc(F)cc2)C1 (stereo not shown) [Compound 13]", "MEASUREMENT_NAME": "IC50", "MEASURED_VALUE": "177 nM"}
{"COMPOUND": "O=C(NCC1CCCN(CCCCOC(c2ccc(F)cc2)c2ccc(F)cc2)C1)Nc1ccc(F)cc1 (stereo not shown) [Compound 12]", "MEASUREMENT_NAME": "IC50", "MEASURED_VALUE": "123 nM"}
{"COMPOUND": "NCC1CCCN(CCCCOC(c2ccc(F)cc2)c2ccc(F)cc2)C1 (stereo not shown) [Compound 10]", "MEASUREMENT_NAME": "IC50", "MEASURED_VALUE": "571 nM"}

Next compound, please.
stdin: Look up human serotonin transporter (hSERT) (Homo sapiens, UniProt P31645) data: IC50 of O=C(NCC1CCCN(CCCCOC(c2ccc(F)cc2)c2ccc(F)cc2)C1)c1cccc(C(F)(F)F)c1 (stereo not shown) [Compound 11] , then report it.
stdout: 511 nM

###

biological target: human dopamine transporter (hDAT) (Homo sapiens); assay: biochemical; assay type: binding; conditions: Table 1; [125I]RTI-55; read-out: DAT binding affinity Ki
Sequence (Q01959 whole entry): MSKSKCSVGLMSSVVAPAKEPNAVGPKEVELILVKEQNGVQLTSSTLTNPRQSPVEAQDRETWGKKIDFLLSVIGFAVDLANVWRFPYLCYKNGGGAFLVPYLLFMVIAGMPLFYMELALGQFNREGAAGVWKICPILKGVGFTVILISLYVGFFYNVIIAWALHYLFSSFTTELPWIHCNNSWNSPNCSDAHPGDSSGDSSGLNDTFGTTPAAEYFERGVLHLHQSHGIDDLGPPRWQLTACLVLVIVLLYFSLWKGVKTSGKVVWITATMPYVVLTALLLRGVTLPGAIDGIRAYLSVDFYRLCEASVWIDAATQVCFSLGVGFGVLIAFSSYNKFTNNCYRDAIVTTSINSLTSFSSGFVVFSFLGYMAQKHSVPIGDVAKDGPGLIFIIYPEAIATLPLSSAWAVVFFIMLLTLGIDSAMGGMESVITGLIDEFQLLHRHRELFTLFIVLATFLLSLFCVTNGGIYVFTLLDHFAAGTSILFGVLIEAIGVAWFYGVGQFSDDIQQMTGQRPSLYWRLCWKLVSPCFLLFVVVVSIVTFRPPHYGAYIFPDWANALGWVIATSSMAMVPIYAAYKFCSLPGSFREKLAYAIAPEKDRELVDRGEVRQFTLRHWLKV
MEASUREMENT_NAME: pKi
The quantity pKi is defined as the negative base-10 logarithm of the molar concentration.

stdin: # return recorded pKi for entry O=C(NS(=O)(=O)c1ccc(F)cc1)N1CCN(CCCCOC(c2ccc(F)cc2)c2ccc(F)cc2)CC1
stdout: 6.48

###

target: D3 receptor (Homo sapiens, UniProt P35462); construct: expressed in transfected cells; host or cells: CHOp- cells (CHOp-D3); experiment: D3 receptor binding, CHOp- cells, [3H]YM-09151-2
Sequence (P35462 whole entry): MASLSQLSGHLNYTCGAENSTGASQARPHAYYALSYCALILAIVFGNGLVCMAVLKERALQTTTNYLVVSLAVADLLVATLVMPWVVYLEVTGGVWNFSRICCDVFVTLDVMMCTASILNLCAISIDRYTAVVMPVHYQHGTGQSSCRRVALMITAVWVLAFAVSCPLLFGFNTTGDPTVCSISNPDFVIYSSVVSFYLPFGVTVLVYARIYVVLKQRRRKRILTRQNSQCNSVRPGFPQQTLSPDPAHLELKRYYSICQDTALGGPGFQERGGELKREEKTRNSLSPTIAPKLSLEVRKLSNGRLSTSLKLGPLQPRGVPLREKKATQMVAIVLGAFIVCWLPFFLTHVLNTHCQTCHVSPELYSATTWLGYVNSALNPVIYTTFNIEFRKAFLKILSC
MEASUREMENT_NAME: Ki (µM)
Answer format: numeric, µM implied, no suffix.

Worked cases, Ki given:
{"MOLECULE_SMILES": "COc1ccccc1N1CCN(CCCCOC(c2ccc(F)cc2)c2ccc(F)cc2)CC1", "Ki, µM": 0.118}
{"MOLECULE_SMILES": "Fc1ccc(C(OCCCCN2CCN(c3ccccn3)CC2)c2ccc(F)cc2)cc1", "Ki, µM": 0.453}

Next compound, please.
stdin: Look up D3 receptor (Homo sapiens, UniProt P35462) data: Ki of Fc1ccc(C(OCCCCN2CCN(c3ccc(Cl)cc3)CC2)c2ccc(F)cc2)cc1 , then report it.
stdout: 0.34

###

The following compounds are listed with their measured Binding Ratios SERT/DAT values.
molecular target: UniProt:Q01959; assay: biochemical; format: binding; settings: Table 2
Answer with a bare number; do not write a unit.

{"COMPOUND": "NCC1CCCN(CCCCOC(c2ccc(F)cc2)c2ccc(F)cc2)C1 (stereo not shown)", "MEASURED_VALUE": 7.8}
{"COMPOUND": "O=C(NCC1CCCN(CCCCOC(c2ccc(F)cc2)c2ccc(F)cc2)C1)Nc1ccc(F)cc1 (stereo not shown)", "MEASURED_VALUE": 2.1}

stdin: # return recorded Binding Ratios SERT/DAT for entry O=C(NCc1ccc(F)cc1)NCC1CCCN(CCCCOC(c2ccc(F)cc2)c2ccc(F)cc2)C1 (stereo not shown)
stdout: 2.7

stdin: # return recorded Binding Ratios SERT/DAT for entry O=C(NCC1CCCN(CCCCOC(c2ccc(F)cc2)c2ccc(F)cc2)C1)c1cccc(C(F)(F)F)c1 (stereo not shown)
stdout: 1.2

###

system: male Swiss-Webster mice; experiment: Cocaine/compound interaction study on locomotor activity; type: in vivo, mouse; settings: 20 mg/kg of cocaine
MEASUREMENT_NAME: Attenuation of cocaine-induced LMA

{"COMPOUND": "O=[N+]([O-])c1ccc(S(=O)(=O)N2CCN(CCCCOC(c3ccc(F)cc3)c3ccc(F)cc3)CC2)cc1", "Attenuation of cocaine-induced LMA": "failed to attenuate"}
{"COMPOUND": "Fc1ccc(C(OCCCCN2CCN(c3ccccn3)CC2)c2ccc(F)cc2)cc1", "Attenuation of cocaine-induced LMA": "Attenuation"}
{"COMPOUND": "Fc1ccc(C(OCCCCN2CCN(c3ccccc3F)CC2)c2ccc(F)cc2)cc1", "Attenuation of cocaine-induced LMA": "failed to attenuate"}
{"COMPOUND": "COc1ccccc1N1CCN(CCCCOC(c2ccc(F)cc2)c2ccc(F)cc2)CC1", "Attenuation of cocaine-induced LMA": "Attenuation"}

Next compound, please.
stdin: # return recorded Attenuation of cocaine-induced LMA for entry Fc1ccc(C(OCCCCN2CCNC(c3ccccc3)C2)c2ccc(F)cc2)cc1 (centres unmarked)
stdout: Attenuation

###

target: D1 receptor (Homo sapiens, UniProt P21728); construct: expressed in transfected cells; host or cells: LHD1 cells; assay: D1 receptor binding, LHD1 cells, [3H]SCH 23,390; conditions: Table 7; LHD1 cells, [3H]SCH 23,390; read-out: D1 Affinity Ki
Sequence (P21728 whole entry): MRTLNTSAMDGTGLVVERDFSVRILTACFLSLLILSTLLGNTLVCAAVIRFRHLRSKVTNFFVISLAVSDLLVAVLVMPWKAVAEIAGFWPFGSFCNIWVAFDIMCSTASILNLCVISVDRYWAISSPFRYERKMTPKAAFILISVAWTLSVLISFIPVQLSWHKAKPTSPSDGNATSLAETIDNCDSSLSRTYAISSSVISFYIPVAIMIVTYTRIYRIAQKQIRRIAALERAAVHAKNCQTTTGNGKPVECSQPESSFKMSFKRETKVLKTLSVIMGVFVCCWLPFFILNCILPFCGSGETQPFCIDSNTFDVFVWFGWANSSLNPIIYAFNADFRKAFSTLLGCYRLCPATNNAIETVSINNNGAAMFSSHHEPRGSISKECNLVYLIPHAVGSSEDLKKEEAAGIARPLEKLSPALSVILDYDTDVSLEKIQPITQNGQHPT
MEASUREMENT_NAME: Ki (µM)
Answer format: numeric, µM implied, no suffix.

{"COMPOUND": "Fc1ccc(C(OCCCCN2CCNC(c3ccccc3)C2)c2ccc(F)cc2)cc1 (stereo not drawn)", "Ki / µM": 6.15}

stdin: # return recorded Ki for entry Fc1ccc(C(OCCCCN2CCN(c3ccccc3)CC2)c2ccc(F)cc2)cc1
stdout: 2.43

stdin: # return recorded Ki for entry O=C(c1ccccc1)N1CCN(CCCCOC(c2ccc(F)cc2)c2ccc(F)cc2)CC1
stdout: 6.64

###

The following compounds are listed with their measured Binding Ratios SERT/DAT values.
target: human dopamine transporter (hDAT) (Homo sapiens); assay: biochemical; assay type: binding; conditions: Table 4
Answer with a bare number; do not write a unit.

Worked cases, Binding Ratios SERT/DAT given:
{"MOLECULE_SMILES": "O=C(CCN1C(=O)C=CC1=O)NCC1(c2ccccc2)CCN(CCCCOC(c2ccc(F)cc2)c2ccc(F)cc2)CC1", "SUBJECT_OF_TEST": "human dopamine transporter (hDAT) (Homo sapiens)", "MEASURED_VALUE": 7.7}
{"MOLECULE_SMILES": "O=C(CCl)NCC1(c2ccccc2)CCN(CCCCOC(c2ccc(F)cc2)c2ccc(F)cc2)CC1", "SUBJECT_OF_TEST": "human dopamine transporter (hDAT) (Homo sapiens)", "MEASURED_VALUE": 1.8}
{"MOLECULE_SMILES": "O=C(NCC1(c2ccccc2)CCN(CCCCOC(c2ccc(F)cc2)c2ccc(F)cc2)CC1)Nc1ccc(F)cc1", "SUBJECT_OF_TEST": "human dopamine transporter (hDAT) (Homo sapiens)", "MEASURED_VALUE": 2.8}
{"MOLECULE_SMILES": "CC(=O)NCC1(c2ccccc2)CCN(CCCCOC(c2ccc(F)cc2)c2ccc(F)cc2)CC1", "SUBJECT_OF_TEST": "human dopamine transporter (hDAT) (Homo sapiens)", "MEASURED_VALUE": 1.5}

Next compound, please.
stdin: Look up human dopamine transporter (hDAT) (Homo sapiens) data: Binding Ratios SERT/DAT of NCC1(c2ccccc2)CCN(CCCCOC(c2ccc(F)cc2)c2ccc(F)cc2)CC1 , then report it.
stdout: 2.5

All figures here come from patent US8772319B2.
